Reference for the values: PubChem BioAssay (NCI)

The reader will find reported growth values listed item by item below.
- Test system: U251 CNS
- experiment.notes: NCI-60 one-dose screen, 48 h (100 = growth as untreated, 0 = no growth, -100 = all killed)
- condition.info: 10 µM
- Description: Growth inhibition of the U251 human tumor cell line is measured as a screen for anti-cancer activity. Cells are grown in 96 well plates and exposed to the test compound for 48 hours. Compounds are tested at a single concentration, which is 10^-5 M for most compounds. The reported endpoint is percent growth (GI% or GIPRCNT), where numbers from 0 - 100% represent growth inhibition, and numbers from -100% - 0 represent cell death. For example, a value of 40 represents 60% growth inhibition. […]
This is part of a sample that, as a whole, favours compounds with a hit. Of some 83,000 tested, about 20% had one in any assay.
observation.type: growth (%)

[[record]]
compound = "C#CCNC(=O)CCC(=O)OC[C@]12CC[C@@H](C(=C)C)[C@@H]1C1CC[C@@H]3[C@@]4(C)CCCNC(C)(C)[C@@H]4CC[C@@]3(C)[C@]1(C)CC2 (stereo partly specified)"
reported_value = -74.2

[[record]]
compound = "Cc1ccc(NC(=O)c2ccc(-n3c(=O)[nH]c4ccccc4c3=O)cc2)cc1"
reported_value = 91.9

[[record]]
compound = "Cc1noc2c(Cc3ccc([N+](=O)[O-])cc3)nn(CC(=O)N/N=C/c3ccc(Cl)cc3)c(=O)c12"
reported_value = 12.7

[[record]]
compound = "O=C(Cn1cc(CSc2nnc3oc4ccccc4n23)nn1)Nc1cccc(Cl)c1"
reported_value = 70.6

[[record]]
compound = "CC(=O)OC[C@@]1(C)C2CC[C@]3(C)C(CC=C4C5CC(C)(C)CC[C@]5(C(=O)Nc5ccccc5)CC[C@]43C)[C@@]2(C)C[C@@H](OC(C)=O)[C@@H]1OC(C)=O (stereo partly specified)"
reported_value = 39.9

[[record]]
compound = "CC1(C)[C@@H](NCO)CC[C@]2(C)[C@H]3C(=O)C=C4[C@@H]5C[C@](C)(CO)CC[C@]5(C)CC[C@@]4(C)[C@]3(C)CC[C@@H]12"
reported_value = 18.9

[[record]]
compound = "O=C(CSc1nnc(-c2c[nH]c3ccccc23)n1-c1ccccc1)c1ccc(Cl)cc1"
reported_value = 30.1

[[record]]
compound = "CC(=C(c1ccc(OCCCN(C)C)cc1)c1ccc(OCCCN(C)C)cc1)c1ccccc1"
reported_value = -86.1

[[record]]
compound = "N#Cc1ccc(-c2nn(-c3ccc(C(=O)O)cc3)cc2CNc2cccc(Br)c2)cc1"
reported_value = 37

[[record]]
compound = "CC[C@]12C=CCN3CC[C@@]4(c5cc(C#CCNc6ccc(C)c(Nc7nccc(-c8cccnc8)n7)c6)c(OC)cc5N(C)[C@H]4[C@@](O)(C(=O)OC)[C@@H]1OC(C)=O)C32 (stereo partly specified)"
reported_value = 40.8

[[record]]
compound = "O=C(c1ccc([N+](=O)[O-])c([N+](=O)[O-])c1O)n1[nH]c(=O)c2ccccc2c1=O"
reported_value = 61.1

[[record]]
compound = "CCOC(=O)C(Cc1ccccc1)N1C(=O)/C(=C/N2N=C(c3ccc(OC)cc3)CC2c2ccc3ccccc3c2)SC1=S (stereo unspecified)"
reported_value = -26.8

[[record]]
compound = "CN(C)c1nc(NCCNS(=O)(=O)c2ccc(C(=O)/C=C/c3ccccc3)cc2)nc(Nc2ccc(F)cc2)n1"
reported_value = -56.2

[[record]]
compound = "O=C1CCC(N2Cc3c(NCc4ccc(-c5ccccc5)cc4)cccc3C2=O)C(=O)N1 (stereo unspecified)"
reported_value = 49.6

[[record]]
compound = "CC(=C(c1ccc(OCCN2CCCCCC2)cc1)c1ccc(OCCN2CCCCCC2)cc1)c1ccc(Cl)cc1"
reported_value = -100

[[record]]
compound = "COc1ccc(/C=C/C(=O)c2ccc(NC(=O)CN3C(=O)NC(C)(c4ccccc4)C3=O)cc2)cc1 (stereo unspecified)"
reported_value = 67.7

